Examples of binders with documented Ratio pH 6/7.4 (IC50) follow.
- study.target: T1, human immunoglobulin E (hIgE) (human, UniProt P01854-1 1-428)
- T1 construct: also called human IgE; Native IgE (Abcam)
- T1 sequence (P01854 whole entry): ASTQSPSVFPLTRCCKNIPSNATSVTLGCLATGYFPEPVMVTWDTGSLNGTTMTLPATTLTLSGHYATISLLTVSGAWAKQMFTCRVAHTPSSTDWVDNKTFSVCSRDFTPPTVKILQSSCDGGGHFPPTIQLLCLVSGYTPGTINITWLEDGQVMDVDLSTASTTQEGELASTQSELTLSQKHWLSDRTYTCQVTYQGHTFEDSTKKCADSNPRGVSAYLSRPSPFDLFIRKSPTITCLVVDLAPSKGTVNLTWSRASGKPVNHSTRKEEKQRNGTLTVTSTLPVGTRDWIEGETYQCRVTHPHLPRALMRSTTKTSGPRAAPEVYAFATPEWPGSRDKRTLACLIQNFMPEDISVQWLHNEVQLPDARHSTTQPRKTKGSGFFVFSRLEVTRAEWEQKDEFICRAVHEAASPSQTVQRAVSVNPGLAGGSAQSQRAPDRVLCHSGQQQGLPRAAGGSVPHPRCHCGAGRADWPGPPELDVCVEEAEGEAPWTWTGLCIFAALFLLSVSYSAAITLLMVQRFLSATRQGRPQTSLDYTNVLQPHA
- method.description: competition ELISA
parameter.measured: Ratio pH 6/7.4 (IC50)

binder: 16E4 human IgG1 mAb (antibody, V domains shown, also called clone 16E4) VH: EVQLVESGGGLVQPGGSLRLSCAASGFTFSSYYMSWVRQAPGKGLEWVSSIYSDGSYAYYADSVKGRFTISRDNAKNTLYLQMNSLKSEDTAVYYCAKDLKARYSGTYHDEGYDYWGQGTQVTVSS VL: SSALTQPSALSVTLGQSAKITCQGGSLGATYAYWYQQKPGQAPVLVIYDDDSRPSGIPERFSGSSSGGRATLTISGAQAEDEGDYYCQSAYSNGNAVFGGGTHLTVL
parameter.measured: Ratio pH 6/7.4 (IC50)
test.result: 2.7
//
binder: 3A1 human IgG1 mAb (antibody, V domains shown, human IgG1 and human light chain constant domains; also called clone 3A1) VH: EVQVQESGGGLVQPGGSLRLSCAASGFTFDNYAMSWVRQAPGKGLEWVSAISWNGGSTYYAESMKGRFTISRDNAKNMLYLQMNSLKSEDTAVYYCAKDLLVAARGGMDYWGKGTLVTVSS VL: SSALTQPSAVSVSLEQTARITCQGGTLGSYGAHWYQQKPGQAPVLLIYGDNSRPSGIPERFSGTRSGGTATLTISGAQAEDEADYYCQSFDYSGNAVFGGGTHLTVL
parameter.measured: Ratio pH 6/7.4 (IC50)
test.result: 1
//
binder: 3D1 human IgG1 mAb (antibody, V domains shown, human IgG1 and human light chain constant domains; also called clone 3D1; WT 3D1) VH: QLQVVESGGGLVQPGGSLRLSCAASGFTFSSYYMSWVRQAPGKGLEWVSSIYSDGRGSKTFYADSVKGRFTISRDNAKNTLYLQMNSLKSEDTAVYFCAKDLLVAARGSMDYWGQGTQVTVSS VL: NFMLTQPSAVSVSLEQTARITCQGGTLGSYGAHWYQQKPGQAPVLLIYGDNSRPSGIPERFSGTRSGGTATLTISGAQAEDEADYYCQSFDYSGNAVFGGGTHLTVL
parameter.measured: Ratio pH 6/7.4 (IC50)
test.result: 1.3
//
binder: 3D6 human IgG1 mAb (antibody, V domains shown, human IgG1 and human light chain constant domains; also called clone 3D6) VH: QVQLVESGGGLVQPGGSLRLSCAASGFTFSSYYMTWVRQAPGKGLEWVSSIYSDGSNTYYADSVKGRFTISRDNAKNTLHLQMNSLKSEDTAVYYCAKDLKARYSGSYHDEGYDYWGQGTQVTVSS VL: QSALTQPSALSVTLGQTAKITCQGGSLGSSYAHWYQQKPGQAPVLVIYDDDSRPSGIPERFSGSSSGGRATLTISGAQAEDEGDYYCQSADSSGNPVFGGGTKLTVL
parameter.measured: Ratio pH 6/7.4 (IC50)
test.result: 2.8
